System: Bacillus subtilis
Experiment: Antibacterial activity against Bacillus subtilis NCIB 3610 after 24 hrs by agar well diffusion method; note: test concentration or dose not given here
Format: functional
# cutoff 20 mm applies to inhibition zone (IZ); >= gives yes, < gives no

{"mol-smiles": "C/C(=N\\Nc1nc2ccccc2[nH]c1=O)c1cc2cc(Br)ccc2oc1=O", "category": "yes"}
{"mol-smiles": "C/C(=N\\Nc1nc2ccccc2[nH]c1=O)c1cc2cc(Cl)ccc2oc1=O", "category": "yes"}
{"mol-smiles": "CC/C(C)=N\\Nc1nc2ccccc2[nH]c1=O", "category": "no"}
{"mol-smiles": "O=c1[nH]c2ccccc2nc1NN=C1CCCCC1", "category": "no"}
{"mol-smiles": "C/C(=N\\Nc1nc2ccccc2[nH]c1=O)c1cc2cc(C)ccc2oc1=O", "category": "no"}
{"mol-smiles": "CC(C)=NNc1nc2ccccc2[nH]c1=O", "category": "yes"}
{"mol-smiles": "O=C1Nc2ccccc2/C1=N/Nc1nc2ccccc2[nH]c1=O", "category": "no"}
